- assayed-system: Glutamate receptor ionotropic, NMDA 2B (Homo sapiens, UniProt Q13224)
- Sequence (Q13224 whole entry): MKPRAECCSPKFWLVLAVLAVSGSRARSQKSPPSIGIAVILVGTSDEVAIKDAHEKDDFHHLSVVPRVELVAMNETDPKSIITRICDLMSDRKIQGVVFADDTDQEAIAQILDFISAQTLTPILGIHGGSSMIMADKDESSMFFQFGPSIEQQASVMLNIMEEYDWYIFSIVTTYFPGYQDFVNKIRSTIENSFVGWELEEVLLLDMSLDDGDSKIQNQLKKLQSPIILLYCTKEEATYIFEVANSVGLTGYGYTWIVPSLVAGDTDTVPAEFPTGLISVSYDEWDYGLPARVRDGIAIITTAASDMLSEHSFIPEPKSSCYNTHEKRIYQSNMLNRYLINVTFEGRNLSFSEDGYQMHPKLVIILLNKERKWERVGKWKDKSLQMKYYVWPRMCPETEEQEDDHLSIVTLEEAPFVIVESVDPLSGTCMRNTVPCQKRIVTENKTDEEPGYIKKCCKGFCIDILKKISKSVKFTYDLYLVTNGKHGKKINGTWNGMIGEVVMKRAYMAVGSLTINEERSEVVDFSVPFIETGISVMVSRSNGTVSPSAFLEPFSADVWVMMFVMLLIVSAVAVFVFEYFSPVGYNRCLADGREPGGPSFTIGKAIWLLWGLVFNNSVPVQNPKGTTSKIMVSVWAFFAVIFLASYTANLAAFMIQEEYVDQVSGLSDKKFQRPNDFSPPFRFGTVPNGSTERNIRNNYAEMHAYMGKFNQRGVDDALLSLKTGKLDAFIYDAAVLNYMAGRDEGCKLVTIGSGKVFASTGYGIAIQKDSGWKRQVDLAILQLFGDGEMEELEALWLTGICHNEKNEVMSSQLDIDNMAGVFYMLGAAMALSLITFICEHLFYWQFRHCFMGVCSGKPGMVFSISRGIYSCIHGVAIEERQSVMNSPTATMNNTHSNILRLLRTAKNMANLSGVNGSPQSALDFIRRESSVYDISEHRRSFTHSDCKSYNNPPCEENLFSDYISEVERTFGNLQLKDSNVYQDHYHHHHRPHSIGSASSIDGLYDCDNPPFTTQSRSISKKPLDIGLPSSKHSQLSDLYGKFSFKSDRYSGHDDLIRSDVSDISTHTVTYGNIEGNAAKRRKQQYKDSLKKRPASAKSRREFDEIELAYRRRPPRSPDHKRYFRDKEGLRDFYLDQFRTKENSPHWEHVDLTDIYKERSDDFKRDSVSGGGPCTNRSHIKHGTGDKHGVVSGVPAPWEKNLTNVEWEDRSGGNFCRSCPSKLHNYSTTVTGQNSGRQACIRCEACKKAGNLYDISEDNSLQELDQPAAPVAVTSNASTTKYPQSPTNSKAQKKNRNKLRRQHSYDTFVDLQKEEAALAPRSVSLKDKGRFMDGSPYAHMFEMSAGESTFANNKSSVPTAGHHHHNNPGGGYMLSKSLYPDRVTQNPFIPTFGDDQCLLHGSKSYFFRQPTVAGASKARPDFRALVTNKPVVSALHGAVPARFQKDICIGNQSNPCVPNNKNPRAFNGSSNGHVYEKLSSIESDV
observable: Ki (nM)

molecule	value-observed
O=[N+]([O-])c1ccc2c(c1)CCC(NCc1ccccc1)CC2 (stereo unspecified)	7.6

* * *

- assayed-system: Sigma non-opioid intracellular receptor 1 (Cavia porcellus, UniProt Q60492)
- Sequence (Q60492 whole entry): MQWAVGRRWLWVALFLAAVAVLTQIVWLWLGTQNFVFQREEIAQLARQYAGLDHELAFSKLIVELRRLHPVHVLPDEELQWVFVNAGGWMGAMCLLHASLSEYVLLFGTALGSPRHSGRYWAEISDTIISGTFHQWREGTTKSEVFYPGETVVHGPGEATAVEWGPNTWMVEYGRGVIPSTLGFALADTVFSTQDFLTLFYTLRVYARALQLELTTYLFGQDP
- experiment: Displacement of [3H]-(+)-Pentazocine from sigma1 receptor in guniea pig brain cortex membranes by scintillation counting analysis

compound	assayed-system	Ki (nM)
O=[N+]([O-])c1ccc2c(c1)CCC(NCCc1ccccc1)CC2 (stereo unspecified)	Sigma non-opioid intracellular receptor 1 (Cavia porcellus, UniProt Q60492)	20
